- tgt: T1, Puf4 RNA-binding domain (Saccharomyces cerevisiae, UniProt P25339 537-888)
- T1 sequence: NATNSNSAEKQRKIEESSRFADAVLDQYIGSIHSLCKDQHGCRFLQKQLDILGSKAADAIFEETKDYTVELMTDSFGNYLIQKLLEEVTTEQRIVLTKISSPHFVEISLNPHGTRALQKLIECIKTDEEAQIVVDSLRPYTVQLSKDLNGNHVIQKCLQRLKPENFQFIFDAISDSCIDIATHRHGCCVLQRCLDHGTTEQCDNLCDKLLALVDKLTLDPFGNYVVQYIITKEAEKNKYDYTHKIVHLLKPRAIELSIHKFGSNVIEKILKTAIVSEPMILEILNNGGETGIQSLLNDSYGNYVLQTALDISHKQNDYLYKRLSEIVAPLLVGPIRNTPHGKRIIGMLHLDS
- assay protocol: competition EMSA; 25 C; three-fold lower Puf4; 20 mM HEPES-Na or HEPES-K pH 7.4, 2 mM MgCl2, 100 mM KOAc, 2 mM DTT, 0.2% Tween 20, 5% glycerol, 0.1 mg/ml BSA; 25 or 0 C; native 20% gel at 4-6 C
- particulars: protein: recombinant; tags: C-terminal SNAP tag; N-terminal 6xHis removed by TEV; label: none; single strand
observation type: Kd (µM)

{"binder": "CGUAUAUUA (ssRNA) [U1C mutant competitor RNA]", "unit of measure": "µM", "observed result": 0.18}
